Cited source: PubChem BioAssay AID1204

System: estrogen receptor (rat uterine cytosol)
Test: DSSTox (NCTRER) National Center for Toxicological Research Estrogen Receptor Binding Database;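 note: ratio of estradiol IC50 over compound IC50 times 100 so estradiol equals 100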
Conditions: rat uterine cytosol ER competitive binding, RBA; ChemClass_ERB: DES Triphenylethylenes; stronger effect = higher value
Records with an inconclusive call do not appear.
observedProperty: relative binding affinity (%)
Kindly answer with a numeric value in %, unit omitted.

Field: example entries. Status: answers known.
moleculeSmiles: CC/C(=C(/c1ccc(OCCN(C)C)cc1)c1cccc(O)c1)c1ccccc1
measurementUnit: %
measValue: 15.1
--
moleculeSmiles: CC/C(=C(\c1ccccc1)c1ccc(OCCN(C)C)cc1)c1ccc(O)cc1
measurementUnit: %
measValue: 174

Attention now turns to another entry.
Task: Kindly state the measured relative binding affinity obtained for C(=C(c1ccccc1)c1ccccc1)c1ccccc1 with estrogen receptor (rat uterine cytosol).
Output: 0.00165
